- assayed-system: Flag-ZZ (ZZ-domain of p62 with the flag-tag) (human)
- Sequence (chain, as listed by the source): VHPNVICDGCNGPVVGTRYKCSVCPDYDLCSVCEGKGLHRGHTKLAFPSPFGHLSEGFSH
- test-summary: FP; pH 6.0
pKd: −log10 of the molar value. Primed or numbered codes have the meaning given here. No end group written: not given here. FITC′ = fluorescein isothiocyanate label
recorded-endpoint: pKd

For record REEEDK-{FITC′} [R-BiP peptide (REEEDK–FITC)] the listed pKd is < 3.40
